System: A498 complex spheroids with HUVEC/MSC, growth
Test: Anticancer human tumor A498 cell line growth inhibition [AhR];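 also: seven day exposure starting three days after spheroid seeding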
Conditions: second compound 0.316 µM; first compound 0.01 µM; stronger effect = lower value
The following molecules are shown together with reported viability, T/C values.
Answer format: numeric, % implied, no suffix.

Past entries and their recorded results:
CC1COCCN1c1cc(-c2ccnn2C)c2ccnc(-c3ccn[nH]3)c2n1 (stereo not drawn) + CC(CO)NC(=O)c1cc(-c2ccc(Cl)cc2)nn(-c2cnn(C)c2)c1=O; 104
Cn1ncnc1C1c2n[nH]c(=O)c3cc(F)cc(c23)NC1c1ccc(F)cc1 (stereo not drawn) + Cc1ccccc1N=Nc1ccc(NC(=O)c2ccnn2C)c(C)c1; 93.3

Please look at the following molecule next.
// query viability, T/C lookup needed for Cn1ncnc1C1c2n[nH]c(=O)c3cc(F)cc(c23)NC1c1ccc(F)cc1 (stereo not drawn) + Cc1cncc(-c2nc(NCCc3c[nH]c4ccccc34)c3ncn(C(C)C)c3n2)c1 , thanks.
// result 92.3

---

Tested on: A498 complex spheroids with HUVEC/MSC, growth
Experiment: Anticancer human tumor A498 cell line growth inhibition [AhR]; active = viability on the fitted dose curve at most 10% of control; inactive = the rest;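 also: seven day exposure starting three days after spheroid seeding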
Details: second compound 0.1 µM; first compound 0.03 µM
Use one of these outcomes when replying: 1.0 (active), 0.0 (inactive)

Nc1ncn(C2CC(O)C(CO)S2)c(=O)n1 (centres undefined) + Cc1cncc(-c2nc(NCCc3c[nH]c4ccccc34)c3ncn(C(C)C)c3n2)c1; 0.0
CC(C)CC(NC(=O)C(Cc1ccccc1)NC(=O)c1cnccn1)B(O)O (centres undefined) + Cc1cncc(-c2nc(NCCc3c[nH]c4ccccc34)c3ncn(C(C)C)c3n2)c1; 1.0

// query What outcome does the record of this test show for CCN(c1cc(-c2ccc(CN3CCOCC3)cc2)cc(C(=O)NCc2c(C)cc(C)[nH]c2=O)c1C)C1CCOCC1 + CC(CO)NC(=O)c1cc(-c2ccc(Cl)cc2)nn(-c2cnn(C)c2)c1=O ?
// result 0.0

// query Now this one: O=C(C=Cn1cnc(-c2cc(C(F)(F)F)cc(C(F)(F)F)c2)n1)NNc1cnccn1 + Cc1ccccc1N=Nc1ccc(NC(=O)c2ccnn2C)c(C)c1
// result 0.0

---

Test system: A498 complex spheroids with HUVEC/MSC, growth
Assay: Anticancer human tumor A498 cell line growth inhibition [AhR];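 also: seven day exposure starting three days after spheroid seeding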;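 as to viability, T/C: luminescence signal used as a surrogate for viable cells; luminescence viability scaled so 100% equals DMSO vehicle wells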
Details: second compound 0.316 µM; first compound 0.0316 µM; stronger effect = lower value
OBSERVABLE: viability, T/C (%)
Answer format: numeric, % implied, no suffix.

CC(C)c1c(-c2ccccc2)nc2c(C#N)c[nH]n2c1=O + Cc1ccccc1N=Nc1ccc(NC(=O)c2ccnn2C)c(C)c1; 87.7
COc1cc(Nc2ncc3c(n2)-c2ccc(Cl)cc2C(c2c(F)cccc2OC)=NC3)ccc1C(=O)O + Cc1ccccc1N=Nc1ccc(NC(=O)c2ccnn2C)c(C)c1; 70
Cn1ncnc1C1c2n[nH]c(=O)c3cc(F)cc(c23)NC1c1ccc(F)cc1 (configuration not stated) + Cc1cncc(-c2nc(NCCc3c[nH]c4ccccc34)c3ncn(C(C)C)c3n2)c1; 95.2
Nc1ccn(C2OC(CO)C(O)C2(F)F)c(=O)n1 (configuration not stated) + Cc1cncc(-c2nc(NCCc3c[nH]c4ccccc34)c3ncn(C(C)C)c3n2)c1; 29
Nc1ncn(C2CC(O)C(CO)O2)c(=O)n1 (configuration not stated) + Cc1cncc(-c2nc(NCCc3c[nH]c4ccccc34)c3ncn(C(C)C)c3n2)c1; 92.5
CC[C@@]1(O)C(=O)OCc2c1cc1n(c2=O)Cc2cc3c(CN(C)C)c(O)ccc3nc2-1 + CC(CO)NC(=O)c1cc(-c2ccc(Cl)cc2)nn(-c2cnn(C)c2)c1=O; 81.3

Please look at the following compound next.
// query viability, T/C lookup needed for Cn1ncnc1C1c2n[nH]c(=O)c3cc(F)cc(c23)NC1c1ccc(F)cc1 (configuration not stated) + CC(CO)NC(=O)c1cc(-c2ccc(Cl)cc2)nn(-c2cnn(C)c2)c1=O , thanks.
// result 87.6

---

Tested on: A498 complex spheroids with HUVEC/MSC, growth
Test: Anticancer human tumor A498 cell line growth inhibition [AhR];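 also: seven day exposure starting three days after spheroid seeding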;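 as to viability, T/C: luminescence signal used as a surrogate for viable cells; luminescence viability scaled so 100% equals DMSO vehicle wells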
Details: second compound 0.316 µM; first compound 0.0316 µM; stronger effect = lower value
The following compounds are shown together with reported viability, T/C values.
Answer format: numeric, % implied, no suffix.

Past entries and their recorded results:
Cn1ncnc1C1c2n[nH]c(=O)c3cc(F)cc(c23)NC1c1ccc(F)cc1 (stereo not drawn) + Cc1ccccc1N=Nc1ccc(NC(=O)c2ccnn2C)c(C)c1; 90.4
CC1(C)CCC(CN2CCN(c3ccc(C(=O)NS(=O)(=O)c4ccc(NCC5CCOCC5)c([N+](=O)[O-])c4)c(Oc4cnc5[nH]ccc5c4)c3)CC2)=C(c2ccc(Cl)cc2)C1 + Cc1cncc(-c2nc(NCCc3c[nH]c4ccccc34)c3ncn(C(C)C)c3n2)c1; 89.2

Please look at the following compound next.
// query viability, T/C lookup needed for COc1cc(Nc2ncc3c(n2)-c2ccc(Cl)cc2C(c2c(F)cccc2OC)=NC3)ccc1C(=O)O + Cc1cncc(-c2nc(NCCc3c[nH]c4ccccc34)c3ncn(C(C)C)c3n2)c1 , thanks.
// result 71.9

---

System: A498 complex spheroids with HUVEC/MSC, growth
Test: Anticancer human tumor A498 cell line growth inhibition [AhR];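 also: seven day exposure starting three days after spheroid seeding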;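 as to viability, T/C: luminescence signal used as a surrogate for viable cells; luminescence viability scaled so 100% equals DMSO vehicle wells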
Conditions: second compound 3.16 µM; first compound 1 µM; stronger effect = lower value
The following compounds are shown together with reported viability, T/C values.
Answer format: numeric, % implied, no suffix.

Past entries and their recorded results:
Nc1ccccc1NC(=O)c1ccc(CNC(=O)OCc2cccnc2)cc1 + CC(CO)NC(=O)c1cc(-c2ccc(Cl)cc2)nn(-c2cnn(C)c2)c1=O; 38.1
CC1COCCN1c1cc(C2(S(C)(=N)=O)CC2)nc(-c2ccnc3[nH]ccc23)n1 (configuration not stated) + Cc1cncc(-c2nc(NCCc3c[nH]c4ccccc34)c3ncn(C(C)C)c3n2)c1; 35.5
Nc1ccn(C2OC(CO)C(O)C2(F)F)c(=O)n1 (configuration not stated) + Cc1ccccc1N=Nc1ccc(NC(=O)c2ccnn2C)c(C)c1; 41.8
Nc1ccn(C2OC(CO)C(O)C2(F)F)c(=O)n1 (configuration not stated) + CC(CO)NC(=O)c1cc(-c2ccc(Cl)cc2)nn(-c2cnn(C)c2)c1=O; 33.7
Nc1ccn(C2OC(CO)C(O)C2(F)F)c(=O)n1 (configuration not stated) + Cc1cncc(-c2nc(NCCc3c[nH]c4ccccc34)c3ncn(C(C)C)c3n2)c1; 30.5

// query viability, T/C lookup needed for CC(C)c1c(-c2ccccc2)nc2c(C#N)c[nH]n2c1=O + Cc1cncc(-c2nc(NCCc3c[nH]c4ccccc34)c3ncn(C(C)C)c3n2)c1 , thanks.
// result 54.9

// query Now this one: COc1cc(C2c3cc4c(cc3C(OC3OC5COC(C)OC5C(O)C3O)C3COC(=O)C23)OCO4)cc(OC)c1O (configuration not stated) + CC(CO)NC(=O)c1cc(-c2ccc(Cl)cc2)nn(-c2cnn(C)c2)c1=O
// result 50.2

---

The following molecules are shown together with reported viability, T/C values.
Tested on: A498 complex spheroids with HUVEC/MSC, growth
Assay: Anticancer human tumor A498 cell line growth inhibition [AhR];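 also: seven day exposure starting three days after spheroid seeding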;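 as to viability, T/C: luminescence signal used as a surrogate for viable cells; luminescence viability scaled so 100% equals DMSO vehicle wells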
Conditions: second compound 0.316 µM; first compound 0.0316 µM; stronger effect = lower value
Answer format: numeric, % implied, no suffix.

CC1COCCN1c1cc(C2(S(C)(=N)=O)CC2)nc(-c2ccnc3[nH]ccc23)n1 (configuration not stated) + Cc1ccccc1N=Nc1ccc(NC(=O)c2ccnn2C)c(C)c1; 101
Nc1ccn(C2OC(CO)C(O)C2(F)F)c(=O)n1 (configuration not stated) + CC(CO)NC(=O)c1cc(-c2ccc(Cl)cc2)nn(-c2cnn(C)c2)c1=O; 27.5
CC(C)c1c(-c2ccccc2)nc2c(C#N)c[nH]n2c1=O + CC(CO)NC(=O)c1cc(-c2ccc(Cl)cc2)nn(-c2cnn(C)c2)c1=O; 91.9
CC1COCCN1c1cc(C2(S(C)(=N)=O)CC2)nc(-c2ccnc3[nH]ccc23)n1 (configuration not stated) + CC(CO)NC(=O)c1cc(-c2ccc(Cl)cc2)nn(-c2cnn(C)c2)c1=O; 88.7
Nc1ccccc1NC(=O)c1ccc(CNC(=O)OCc2cccnc2)cc1 + CC(CO)NC(=O)c1cc(-c2ccc(Cl)cc2)nn(-c2cnn(C)c2)c1=O; 79.5

// query viability, T/C lookup needed for Nc1ccccc1NC(=O)c1ccc(CNC(=O)OCc2cccnc2)cc1 + Cc1cncc(-c2nc(NCCc3c[nH]c4ccccc34)c3ncn(C(C)C)c3n2)c1 , thanks.
// result 83.6

// query Now this one: CC1COCCN1c1cc(-c2ccnn2C)c2ccnc(-c3ccn[nH]3)c2n1 (configuration not stated) + CC(CO)NC(=O)c1cc(-c2ccc(Cl)cc2)nn(-c2cnn(C)c2)c1=O
// result 76

---

The following compounds are shown together with reported IC50 values.
Tested on: A498 complex spheroids with HUVEC/MSC, growth
Assay: Anticancer human tumor A498 cell line growth inhibition [AhR];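 also: seven day exposure starting three days after spheroid seeding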
Conditions: curve of first compound; second compound 10 µM

Past entries and their recorded results:
COc1ccc([C@@H](O)c2cc(-c3ncnc4cc(N5CCOCC5)ccc34)c(F)cc2Cl)nn1 + Cc1cncc(-c2nc(NCCc3c[nH]c4ccccc34)c3ncn(C(C)C)c3n2)c1; < 31.6 nM
Nc1ncn(C2CC(O)C(CO)S2)c(=O)n1 (stereo not drawn) + Cc1ccccc1N=Nc1ccc(NC(=O)c2ccnn2C)c(C)c1; > 300 nM

Please look at the following compound next.
// query IC50 lookup needed for COc1cccc2c1C(=O)c1c(O)c3c(c(O)c1C2=O)CC(O)(C(=O)CO)CC3OC1CC(N)C(O)C(C)O1 (stereo not drawn) + CC(CO)NC(=O)c1cc(-c2ccc(Cl)cc2)nn(-c2cnn(C)c2)c1=O , thanks.
// result < 31.6 nM
